Please provide measured EC50 for the entries that follow.
- ASSAYED SYSTEM: Nuclear receptor ROR-gamma (Homo sapiens)
- Sequence (P51449 whole entry, the tested form may be a part): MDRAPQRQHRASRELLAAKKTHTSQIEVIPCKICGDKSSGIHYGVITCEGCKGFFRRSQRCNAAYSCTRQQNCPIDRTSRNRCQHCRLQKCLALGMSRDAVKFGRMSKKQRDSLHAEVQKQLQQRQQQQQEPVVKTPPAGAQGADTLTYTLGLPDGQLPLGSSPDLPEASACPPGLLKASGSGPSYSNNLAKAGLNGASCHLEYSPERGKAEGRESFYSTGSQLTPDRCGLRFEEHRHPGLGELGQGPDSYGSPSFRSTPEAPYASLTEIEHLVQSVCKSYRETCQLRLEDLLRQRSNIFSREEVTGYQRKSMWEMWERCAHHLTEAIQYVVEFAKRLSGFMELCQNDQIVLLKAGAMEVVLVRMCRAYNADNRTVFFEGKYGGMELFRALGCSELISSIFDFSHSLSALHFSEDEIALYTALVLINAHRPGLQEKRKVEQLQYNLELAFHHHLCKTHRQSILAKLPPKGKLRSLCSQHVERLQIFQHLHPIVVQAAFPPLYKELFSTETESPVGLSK
- PROTOCOL TEXT: Agonist activity at human RoRc-LBD expressed in CHO cells assessed as transcriptional activity by GAL4 reporter assay
- Assay type: functional, cell-based
All answers are understood in nM, so give the number only.

The molecule listed as Cc1ccc(NC(=O)C[C@H](CC(=O)O)c2noc([C@H]3C[C@@H](CC(C)C)C3)c2C2CC2)c(Cl)c1 has a reported EC50 of 320

The molecule listed as Cc1ccc(NC(=O)C[C@H](CCC(=O)O)c2nnn([C@H]3C[C@@H](CC(C)(C)C)C3)c2C(F)(F)F)c(C)c1 has a reported EC50 of 53

The molecule listed as Cc1ccc(NC(=O)C[C@H](CCC(=O)O)c2noc([C@H]3C[C@@H](CC(C)(C)C)C3)c2C2CC2)c(Cl)c1 has a reported EC50 of 2300

The molecule listed as Cc1ccc(Cl)c(NC(=O)C[C@H](CC(=O)O)c2noc([C@H]3C[C@@H](CC(C)C)C3)c2C2CC2)c1 has a reported EC50 of 71

Cited source: ChEMBL document CHEMBL3351629
